Protocol conditions: in n-butanol, 298.15 K
Quantity name: solubility (mole fraction)
Respond using a number only.

Returns the measured solubility (mole fraction) for the input molecule. Input: `OCCOc1ccc2ccccc2c1-c1c(OCCO)ccc2ccccc12` 0.00242

---

Protocol conditions: in n-propanol, 313.15 K
Quantity name: solubility (mole fraction)
Respond using a number only.

Returns the measured solubility (mole fraction) for the input molecule. Input: `OCCOc1ccc2ccccc2c1-c1c(OCCO)ccc2ccccc12` 0.00644

---

Protocol conditions: in ethyl formate, 303.15 K
Quantity name: solubility (mole fraction)

Returns the measured solubility (mole fraction) for the input compound. Input: `OCCOc1ccc2ccccc2c1-c1c(OCCO)ccc2ccccc12` 0.00721
